Molecular target: T1, mouse secretagogin M229A (mouse, UniProt Q91WD9 1-276, M229A)
T1 sequence: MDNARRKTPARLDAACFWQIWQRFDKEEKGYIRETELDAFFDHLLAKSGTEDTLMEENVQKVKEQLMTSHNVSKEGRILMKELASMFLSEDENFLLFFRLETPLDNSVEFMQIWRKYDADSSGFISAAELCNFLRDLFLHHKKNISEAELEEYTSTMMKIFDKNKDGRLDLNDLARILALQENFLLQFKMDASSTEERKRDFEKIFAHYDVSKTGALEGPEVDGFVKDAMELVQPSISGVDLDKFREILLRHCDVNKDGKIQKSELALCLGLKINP
Assay: ITC
pKd: −log10 of the molar value.
experimental_endpoint: pKd

>>> assay_value("TPLPEESMKQGLQNLREEIKQLGREVRAQLKAIEPQKE (domain or fragment) [helix-b of the Habc domain of mouse syntaxin-4]")
5.79
